Biological target: JAK2 (a.a. 828-1132) (Homo sapiens)
Construct: JAK2 (a.a. 828-1132); His tag (N)
Sequence (O60674 828-1132): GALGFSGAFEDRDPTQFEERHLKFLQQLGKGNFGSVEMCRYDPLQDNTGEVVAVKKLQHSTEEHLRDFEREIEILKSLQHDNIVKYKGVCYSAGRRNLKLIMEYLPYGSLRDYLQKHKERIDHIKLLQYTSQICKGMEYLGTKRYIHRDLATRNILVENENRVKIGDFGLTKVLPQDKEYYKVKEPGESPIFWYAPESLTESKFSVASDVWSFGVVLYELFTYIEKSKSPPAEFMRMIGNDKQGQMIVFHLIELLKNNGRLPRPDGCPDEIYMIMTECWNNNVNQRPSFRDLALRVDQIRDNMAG
Assay: In vitro JAK kinase assay (HTRF, phosphorylation of biotinylated peptide), JAK2
Assay type: biochemical
Details: Table F; 1 mM ATP
Please go through the items and note down their IC50.

# return recorded IC50 for entry CNC1(c2cc(C(=O)N3CCN([C@H]4C[C@](CC#N)(n5cc(-c6ncnc7[nH]ccc67)cn5)C4)CC3)nc(C(F)(F)F)n2)CCC1 < 10 nM

Please report IC50 for the following compound: CN(C)Cc1cc(OC2CCN([C@H]3C[C@](CC#N)(n4cc(-c5ncnc6[nH]ccc56)cn4)C3)CC2)nc(C(F)(F)F)c1 > 100 nM

Give me measured IC50, please, for this compound: N#CC[C@]1(n2cc(-c3ncnc4[nH]ccc34)cn2)C[C@H](N2CCN(C(=O)c3cc(C4(O)CCC4)nc(C(F)(F)F)n3)CC2)C1 10 to 25 nM

Please list IC50 recorded for the compound CC(C)CNC(=O)N1CCN([C@H]2C[C@](CC#N)(n3cc(-c4ncnc5[nH]ccc45)cn3)C2)CC1 25 to 100 nM

Specify measured IC50 for CN(C)Cc1cc(C(=O)N2CCN([C@H]3C[C@](CC#N)(n4cc(-c5ncnc6[nH]ccc56)cn4)C3)CC2)nc(C(F)(F)F)c1 . 25 to 100 nM

Note down IC50 recorded for CC(C)N(C)C(=O)N1CCN([C@H]2C[C@](CC#N)(n3cc(-c4ncnc5[nH]ccc45)cn3)C2)CC1 > 100 nM

Quick one: give measured IC50 for CC(C)(O)c1cc(C(=O)N2CCN([C@H]3C[C@](CC#N)(n4cc(-c5ncnc6[nH]ccc56)cn4)C3)CC2)nc(C(F)(F)F)n1 10 to 25 nM

Give recorded IC50. N#CC[C@]1(n2cc(-c3ncnc4[nH]ccc34)cn2)C[C@H](N2CCN(C(=O)c3cc(CN)cc(C(F)(F)F)n3)CC2)C1 25 to 100 nM

Fill in IC50 for record CC(C)(O)c1cc(C(=O)N2CCN([C@H]3C[C@](CC#N)(n4cc(-c5ccnc6[nH]ccc56)cn4)C3)CC2)nc(C(F)(F)F)c1 25 to 100 nM
